Values from patent US20180057604A1

Listed below: pKd values for each entry.
biological target: His-tagged BACE1 protein (Example 15) (Homo sapiens (Human), UniProt P56817 22-457); test: SPR (Biacore T200), Fab on captured His-BACE1;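 further: Single-cycle kinetics with serially diluted Fab flowed over BACE1 captured by anti-His antibody on a CM5 chip, rates fitted to a one-to-one Langmuir model, Kd derived as koff over kon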
Sequence (P56817 22-457 limits assumed): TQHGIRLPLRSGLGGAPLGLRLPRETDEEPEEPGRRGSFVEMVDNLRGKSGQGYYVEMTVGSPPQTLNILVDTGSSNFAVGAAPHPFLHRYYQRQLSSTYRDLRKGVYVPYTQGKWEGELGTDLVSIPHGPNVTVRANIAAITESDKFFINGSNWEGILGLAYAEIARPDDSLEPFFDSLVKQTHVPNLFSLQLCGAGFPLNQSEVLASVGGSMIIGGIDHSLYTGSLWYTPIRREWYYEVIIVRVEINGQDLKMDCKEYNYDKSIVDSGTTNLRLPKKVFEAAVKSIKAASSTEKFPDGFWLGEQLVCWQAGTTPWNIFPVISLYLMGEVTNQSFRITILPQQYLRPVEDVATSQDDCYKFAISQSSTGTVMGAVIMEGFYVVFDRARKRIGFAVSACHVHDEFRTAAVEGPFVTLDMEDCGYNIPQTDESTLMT
pKd: −log10 of the molar value.
PARAMETER: pKd

BINDER | EXPERIMENTAL RESULT
6266.1 Fab (Fab, V domains shown, not tied singly) VH: QVQLVQSGAEVKKPGSSVKVSCKASGGTLSHYGVSWVRQAPGQGLEWMGNIIPGIGTANYAQKFQGRVTITADESTSTAYMELSSLRSEDTAVYYCARSGGTKYGMLDVWGQGTMVTVSS VL: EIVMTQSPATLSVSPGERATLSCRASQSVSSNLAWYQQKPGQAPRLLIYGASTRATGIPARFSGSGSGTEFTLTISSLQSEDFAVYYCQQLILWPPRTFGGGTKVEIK | 9.62
6266.2 Fab (Fab, V domains shown) VH: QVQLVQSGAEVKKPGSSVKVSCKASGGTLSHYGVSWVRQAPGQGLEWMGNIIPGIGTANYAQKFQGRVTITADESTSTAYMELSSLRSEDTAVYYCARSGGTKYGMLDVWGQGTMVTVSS VL: EIVMTQSPATLSVSPGERATLSCRASQSVSSNLAWYQQKPGQAPRLLIYGASKRATGIPARFSGSGSGTEFTLTISSLQSEDAAVYYCQQLILWPPRTFGGGTKVEIK | 9.24
6266.6 Fab (Fab, V domains shown) VH: QVQLVQSGAEVKKPGSSVKVSCKASGGTLSHYGVSWVRQAPGQGLEWMGNIIPGIGTANYAQKFQGRVTITADESTSTAYMELSSLRSEDTAVYYCARSGGTQYGMLDVWGQGTMVTVSS VL: EIVMTQSPATLSVSPGERATLSCRASQSVSSNLAWYQQKPGQAPRLLIYGASTRAYGIPARFSGSGSGTEFTLTISSLQSEDAAVYYCQQLILWPPRTFGGGTKVEIK | 9.11
6266.4 Fab (Fab, V domains shown) VH: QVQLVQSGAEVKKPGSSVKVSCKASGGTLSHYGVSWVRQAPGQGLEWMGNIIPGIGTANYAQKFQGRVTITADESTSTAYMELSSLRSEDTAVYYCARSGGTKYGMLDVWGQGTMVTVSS VL: EIVMTQSPATLSVSPGERATLSCRASQSVSSNLAWYQQKPGQAPRLLIYGASKRATGIPARFSGSGSGTEFTLTISSLQSEDFAVYYCQQLILWPPRTFGGGTKVEIK | 9.59
6266.8 Fab (Fab, V domains shown, not tied singly) VH: QVQLVQSGAEVKKPGSSVKVSCKASGGTLKGYGVSWVRQAPGQGLEWMGNIIPGFGTANYAQKFQGRVTITADESTSTAYMELSSLRSEDTAVYYCARGGGTKYGMLDVWGQGTMVTVSS VL: EIVMTQSPATLSVSPGERATLSCRASQSVSSNLAWYQQKPGQAPRLLIYGASTRAYGIPARFSGSGSGTEFTLTISSLQSEDFAVYYCQQLILWPPRTFGGGTKVEIK | 9.25
6266wt (Fab, V domains shown, also called ADI6266) VH: QVQLVQSGAEVKKPGSSVKVSCKASGGTLSGYGVSWVRQAPGQGLEWMGNIIPGFGTANYAQKFQGRVTITADESTSTAYMELSSLRSEDTAVYYCARSGGTKYGMLDVWGQGTMVTVSS VL: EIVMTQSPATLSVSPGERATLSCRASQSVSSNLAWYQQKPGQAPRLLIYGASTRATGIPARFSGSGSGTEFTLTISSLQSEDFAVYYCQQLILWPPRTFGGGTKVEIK | 8.96
6266.9 Fab (Fab, V domains shown) VH: QVQLVQSGAEVKKPGSSVKVSCKASGGTLKGYGVSWVRQAPGQGLEWMGNIIPGFGTANYAQKFQGRVTITADESTSTAYMELSSLRSEDTAVYYCARGGGTKYGMLDVWGQGTMVTVSS VL: EIVMTQSPATLSVSPGERATLSCRASQSVSSNLAWYQQKPGQAPRLLIYGASKRATGIPARFSGSGSGTEFTLTISSLQSEDFAVYYCQQLILWPPRTFGGGTKVEIK | 9.17
6266.12 Fab (Fab, V domains shown) VH: QVQLVQSGAEVKKPGSSVKVSCKASGGTLNGYGVSWVRQAPGQGLEWMGNIIPGFGTANYAQKFQGRVTITADESTSTAYMELSSLRSEDTAVYYCARSGGTKYGMLDVWGQGTMVTVSS VL: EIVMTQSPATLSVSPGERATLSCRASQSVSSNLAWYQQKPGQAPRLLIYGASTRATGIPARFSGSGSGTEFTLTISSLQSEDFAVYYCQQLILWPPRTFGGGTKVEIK | 9.28
